Assay notes: soluble on expression in E. coli; label from the status in PepcDB or PDB records
Measurement kind: soluble on expression in E. coli

INSERT INTO results (entry_sequence, value_reported) VALUES
  ('MDKSSDAFRTISEVAELLELPQHVLRFWETRFKQIKPMKRGGGRRYYRPVDIDLLNGIKQLLYDQGYTIKGVQRLLKENGVAFVTAFGNGDLDAMNVVIEKKHGEQTSEVTSSKPKKSSFGLLSFMRNEVETSIGSVNVYKDKTDKALLQEILFELIECKRVLDRAR', 'not soluble'),
  ('GASALSLSLLSISRSGNTVTLIGDFPDEAAKAALMTALNGLLAPGVNVIDQIHVDPVVRSLDFSSAEPVFTASVPIPDFGLKVERDTVTLTGTAPSSEHKDAVKRAATSTWPDMKIVNNIEVTGQAPPGPPA', 'soluble'),
  ('MAHHHHHHMRTSPLWRLRMTSRPLSLERVFVINLDRRPDRWAAIQAVCARAGLPAERTERVPAVEGSRLDVNAVHHCGFVSALGLRRLKEPPEHHIWGMDLNKAALGCALSHIHLWARIAALGKVSNISAEAPAATLPKQCFLVLEDDSTFADSDDNGSDSPAASPSLPFLDQLQRRMNSVPPDWELVYVSGLDTAKQCLHMQVAKGVARVPQYHRTTNAYLVTPQGARRLLATCVPLTFQLDTAMTMNVGYPPGVVGVAGAQTLPHVLDPVCYTLQPPLMQQAAQLDTDIQH', 'soluble'),
  ('MGHHHHHHSHGQSLIVLQNVGGGEAGPQEMSGVQLQPLRPAPEVTTVQLQPAQEVTTVQLQPAQEVTTVQLQPAQEVTTVQLQPVAGQLSNSSGGAVATEAPNLLVVQSGAAEELLTGPGPGEAGDGEASTGVVQDVLFETLQTDEGLQSVLVLSGADGEQTRLCVQEVETLPPGLTEPPATGPPGQKLLIIRSAPATELLDSSNTWRRHRPRCNFLAPPAV', 'not soluble'),
  ('SLSFSSKVKSEVCRYDDYSKGEAIAVLSAVMKASGTLALEGNRKISFKIITENPAIARLIFKLLKKYFDIHTEIMMKKSNSLKKNNVYVVSITEDMGVRELLKTVGVMKNEDGIVTLSYDIPEFVVKDDESRKMYIRGAFLGGGSVSNPEKMYHLEFVTHNEDYASNLRDLINTYGLNSKVIQRKNSYVVYIKEGEQVVDLLNIIGAHSSLLELENIRIIKEMRNNINRLVNCETANLSKTVNASVRQIESIKLIEKQIGLSRLPENLREVAKLRLNYPDESLKELGKMLEPPVGKSGVNHRLRKIEKIAEELRKEGR', 'soluble'),
  ('MNTLGRFLRLTTFGESHGDVIGGVLDGMPSGIKIDYALLENEMKRRQGGRNVFITPRKEDDKVEITSGVFEDFSTGTPIGFLIHNQRARSKDYDNIKNLFRPSHADFTYFHKYGIRDFRGGGRSSARESAIRVAAGAFAKMLLREIGIVCESGIIEIGGIKAKNYDFNHALKSEIFALDEEQEEAQKTAIQNAIKNHDSIGGVALIRARSIKTNQKLPIGLGQGLYAKLDAKIAEAMMGLNGVKAVEIGKGVESSLLKGSEYNDLMDQKGFLSNRSGGVLGGMSNGEEIIVRVHFKPTPSIFQPQRTIDINGNECECLLKGRHDPCIAIRGSVVCESLLALVLADMVLLNLTSKIEYLKTIYNEN', 'soluble');

---

Assay notes: soluble on expression in E. coli; label from the status in PepcDB or PDB records
Measurement kind: soluble on expression in E. coli

INSERT INTO results (entry_sequence, measurement_kind, value_reported) VALUES
  ('MGQTLFDKVWNRHVLYGKLGEPQLLYIDLHLIHEVTSPQAFEGLRLQNRKLRRPDLTFATLDHNVPTIDIFNIKDEIANKQITTLQKNAIDFGVHIFDMGSDEQGIVHMVGPETGLTQPGKTIVCGDSHTATHGAFGAIAFGIGTSEVEHVFATQTLWQTKPKN', 'soluble on expression in E. coli', 'not soluble'),
  ('MATLDVNPELYQAQLADKIARLKAMFVDYSMPELEVFESPVANYRMRAEFRIWHEGDDMYYIMFNQETREKYRVDQFPAASRLINDLMPLLMDAMKGSPILRHKLFQVDFLSTLSGEILVSLLYHRQLSEEWITAAQALKQRLNDEGFNLNLIGRARKMKVVLDRDYVVENLQVNGQPYVYKQVENSFTQPNAKVAEKMLEWAVDCTQESKGDLLELYCGNGNFSLALAQNFERVLATELAKPSVEAAQFNIAANQIGNVQIIRMSAEEFTQAMEGKREFNRLKDAGVDLQSYRCNTIFVDPPRSGMDIDTCKMVQGYERILYISCNPETLQENLQVLGETHQVVRFALFDQFPYTHHMEAGVMLERKK', 'soluble on expression in E. coli', 'not soluble'),
  ('MTKPMIQIALDQTNLTDAVAVASNVASYVDVIEVGTILAFAEGMKAVSTLRHNHPNHILVCDMKTTDGGAILSRMAFEAGADWITVSAAAHIATIAACKKVADELNGEIQIEIYGNWTMQDAKAWVDLGITQAIYHRSRDAELAGIGWTTDDLDKMRQLSALGIELSITGGIVPEDIYLFEGIKTKTFIAGRALAGAEGQQTAAALREQIDRFWP', 'soluble on expression in E. coli', 'not soluble'),
  ('MGSDKIHHHHHHMWTQQMIHTKRGTFELFTKGNGEPLCITHHYSQFNETGDYFADVFTSTHRVLLINLRDAGNSAKANSEKELSMIETIHDLEAIREALQLPTWHFAGHSTGGMLGLLYAITYPKSLQSLVLVGAAASNYTETPFCIYHPEHPQFHYMQHLIENLKSPHLTNEERKELSTERTKLSLHKPENYNSYFCKPIQKTMSASRMNAFSHEYPAFNLREHLPSMKTKTLIICGRYDVQCPIQYSIEMHEGIRNSIFVTFEESNHYPFLEEAAQFTSTIRTFYKLLH', 'soluble on expression in E. coli', 'not soluble'),
  ('MVKQRSELLFLYDVQWANPNGDPVDGNKPRIDEETGKNIVTDVRLKRTIRDYLYEYRHQEIFVREIAQDDDYIQDAKARAEDFLVKDGEKLDKSKLTLSEMKKIINDEVLRQCIDVRLFGVTLPIEKSSKEKSSITHTGPVQFKMGQSLHRVKLEYIKGTGAFASGGQMTQKTFREEYVLPYSLIAFYGVINETAARFTRLTEEDVELLVDAMWEGTKNLISRSKVGHVPRLLLRVVYQEPHFHIGELDKYISLHTEKAEEEIRDAQDYVLDVSRLIEVLAREKEKIANIELRQDERLVCNENLVDRLRQEGIVVDIR', 'soluble on expression in E. coli', 'not soluble');

---

Assay notes: soluble on expression in E. coli; label from the status in PepcDB or PDB records
Measurement kind: soluble on expression in E. coli

INSERT INTO results (entry_sequence, value_reported) VALUES
  ('MTEMSFLSSEVLVGDLMSPFDQSGLGAEESLGLLDDYLEVAKHFKPHGFSSDKAKAGSSEWLAVDGLVSPSNNSKEDAFSGTDWMLEKMDLKEFDLDALLGIDDLETMPDDLLTTLDDTCDLFAPLVQETNKQPPQTVNPIGHLPESLTKPDQVAPFTFLQPLPLSPGVLSSTPDHSFSLELGSEVDITEGDRKPDYTAYVAMIPQCIKEEDTPSDNDSGICMSPESYLGSPQHSPSTRGSPNRSLPSPGVLCGSARPKPYDPPGEKMVAAKVKGEKLDKKLKKMEQNKTAATRYRQKKRAEQEALTGECKELEKKNEALKERADSLAKEIQYLKDLIEEVRKARGKKRVP', 'soluble'),
  ('MAFNDCFSLNYPGNPCPGDLIEVFRPGYQHWALYLGDGYVINIAPVDGIPASFTSAKSVFSSKALVKMQLLKDVVGNDTYRINNKYDETYPPLPVEEIIKRSEFVIGQEVAYNLLVNDCEHFVTLLRYGEGVSEQANRAISTVEFVTAAVGVFSFLGLFPKGQRAKYY', 'not soluble'),
  ('DGTSQLAELVDAAAERLEVADPVAAFKWRAQLPIEDSGRVEQQLAKLGEDARSQHIDPDYVTRVFDDQIRATEAIEYSRFSDWKLNPASAPPEPPDLSASRSAIDSLNNRMLSQIWSHWSLLSAPSCAAQLDRAKRDIVRSRHLDSLYQRALTTATQSYCQALPPA', 'soluble'),
  ('MGSSHHHHHHSSGRENLYFQGHMCILMATRAHPDYELILISNRDEFLARKTHATCWHNNDFILSPYDLAKTSAEKQIFGTWSGINKEGKLATILNLKLDNEQNNTKSRSRGLLPFIFLSIHKADFEDWDNYKKFEGHYDGLKSTGDFNFFYGDVIKKQYKVIDSLGRTFDVLSSTCRKDLDSYMVVSNGKFYDSSSIPGQAWEKVKVARDSLENLVLENIESDEEKIISSCFQLASKSSLPSTISNPDVLQMVDPNVTMNTIYVPPLRRPPRDDLGASIPDGDYYGTRSQIVLLVSKDSTRVTFIERVLYSSDEDVRKYSVTSPKEEKRFKFKL', 'soluble'),
  ('MAHHHHHHMRSPASEGDCGVRLRVSWREGKQRALTDELDAKHQSDPYETLQTSDRKVFVSNTAAGAGRLLTDPQVHADDKGFSTYLRERLLVRVLPEGQKCVCGADASNEHVHTCTRLQQNPRTTRHEMISMTFANGLRLCGFQCGMEPRLTEASRRRPDILIVGLDTYAITDVTVTYAGRVTAYVSEESMEEADPLRAARDRLTQKRQKYRHWALANGLDFEPFVMLTNGAIHPAIRRWLRRILGARVLAYAGAQWVAERQ', 'soluble'),
  ('MTELAQLQASTEQAAALLKAMSHPKRLLILCMLSGSPGTSAGELTRITGLSASATSQHLARMRDEGLINSQRDAQRILYSIKNEAVNAIIATLKNVYCP', 'not soluble'),
  ('HGNQLTAYTLRLGDNCLVLSQRLGEWCGHAPELEIDLALANIGLDLLGQARNFLSYAAELAGEGDEDTLAFTRDERQFSNLLLVEQPNGNFADTIARQYFIDAWHVALFTRLMESRDPQLAAISAKAIKEARYHLRFSRGWLERLGNGTDVSGQKMQQAINKLWRFTAELFDADEIDIALSEEGIAVDPRTLRAAWEAEVFAGINEATLNVPQEQAYRTGGKKGLHTEHLGPMLAEMQYLQRVLPGQQW', 'soluble'),
  ('MSLEHLHELVGSVDVVLSDIWGVVHNGLESFPDACAALKTARDQGRTVVLITNAPRPADSVQRQLRKLDVPDDCYDAIVSSGDLTRIYVAEHPGQSIYWLGPDRDNSIYRGLDAVLTPLEKADYIICTGPFDDETESAEDYREMMGQALERKLTLVCANPDIVVERGDRLIYCAGAIAELYRELGGDVIFYGKPHRPIYDRAMALAREIRGVDTPVQRVLAIGDSVRTDLAGAQGYGIDLLFVTRGIHADAFEGIDRLDTAAVNELFGHPPLALTRELREGHHHHHH', 'soluble'),
  ('MAHHHHHHMRNSFFPMLCEKQSTPELEAMPLYLPDTVVLQLHRHDGEAEFADYMDANSLTFVALGDAERPALCGIDATAQLHYEGAQRTLVSAAGIVSGIRRRRLRVPFGMSELSELLRRAYNTEKGNRNNSLTGSTETVLLTHLFSDAVWAEESFHCLSTTRRVGNILGSTGIGSATRDLAVERWRLDQDIMELRDELMIARTVYDYRHCGYESNRSISGMEEEGMKRVNAIQSNREEERKWQLSVFCERAKHEAEKMIKELEQRGGATLDELQKTLEAKKRESSALQADRENRIWEYEHTLEKIRTRKQDEESASERLRQAMQQLEQELSLRQSAIETREQQLEMVQLDGARGREAIMRERHSIEAVSPAEAVDPSD', 'not soluble'),
  ('TADVRTAENMGVRAYTVATAITFQGSGSYRGERWVDSADIIRQIESLSAEMEPAVAKIGLIRDSDTLSLVVDCLKKVFPSIRIVWDPVLRASADSSAGQADRFNLEDITALSRIDFITPNLPEARHLLGCEPDDETLLDFYRRSGVGLVLKGGHAGESVVTDRIVYDGRCEALRLLRGGTGKHGTGCAHSTAFAAALALEQEPFTAAGMAQLYVSRLRERASGLLAMHKDLPVDPVVR', 'not soluble'),
  ('MGSDKIHHHHHHAVTTGNTPVTAEFAGGTLPDGNGVPNTVDPDPTKPNSNFDLLFIPREYDFGKLSISDDLTKPIPNKTDEGRAGNVESVGVGDIRGSKEGWHVTAQSTGMKLGEESLEGSITTGAMFLYPLIYNEETKTYDYQSADLADPVTKPETVDTTAFSIALGGDAVLLANATAGKGQGLWQFSFRPYLNITTPAYNIKAGAYTGNITWNLVAGPSI', 'not soluble');
